src = ChEMBL document CHEMBL3832066

Assay: Pharmacokinetic parameters for Isosorbide mononitrate after multiple oral dose administrations of 60 and 120 mg Isosorbide mononitrate tablets to subjects
Type: ADME, organism-based
Parameters: dose 120 mg, dose 60 mg, route oral
Details: human, in vivo; dose 60 mg, dosed compound id 10, dosed compound name ISOSORBIDE MONONITRATE, regimen Multiple dose, route oral, tissue Plasma
Test readout: half-life

{"Compound": "O=[N+]([O-])O[C@@H]1CO[C@H]2[C@@H]1OC[C@@H]2O [ISOSORBIDE MONONITRATE]", "Experimental value": "6.2 to 6.3 h"}

* * *

Test: Pharmacokinetic parameters for Isosorbide mononitrate after single oral dose administration of 60 mg Isosorbide mononitrate solution or table to subjects.
Type: ADME, organism-based
Design: dose 60 mg, route oral
Settings: human, in vivo; dose 60 mg, dosed compound id 10, dosed compound name ISOSORBIDE MONONITRATE, regimen Single dose, route oral, tissue Plasma

{"Compound": "O=[N+]([O-])O[C@@H]1CO[C@H]2[C@@H]1OC[C@@H]2O [ISOSORBIDE MONONITRATE]", "half-life": "6.3 to 6.6 h"}
